# System: HepG2
# TEST: Cytotoxic activity against HepG2 liver cancer cell line
# Assay type: functional, cell-based
# EXPERIMENTAL_CONDITIONS: Homo sapiens
Grouping by measured IC50 is done with the following cut points: low = under 0.4 µM, moderate = from 0.4 µM up to 3 µM, high = 3 µM and over

molecule=N#C/N=C1\N(CCCCCCOc2ccc(Cl)cc2)C(=O)CCN1c1ccncc1 category_label=low
molecule="CCC1C(=O)N(CCCCCOc2ccc(Cl)cc2)/C(=N\\C#N)N1c1ccncc1 (stereo unspecified)" category_label=high
molecule="CCC1C(=O)N(CCCCCCCOc2ccc(Cl)cc2)/C(=N\\C#N)N1c1ccncc1 (stereo unspecified)" category_label=high
molecule=N#C/N=C1\N(CCCCCCCOc2ccc(Cl)cc2)C(=O)CN1c1ccncc1 category_label=moderate
molecule=N#C/N=C1\N(CCCCCOc2ccc(Cl)cc2)C(=O)CCN1c1ccncc1 category_label=moderate
molecule="CC1C(=O)N(CCCCCOc2ccc(Cl)cc2)/C(=N\\C#N)N1c1ccncc1 (stereo unspecified)" category_label=high
molecule="N#C/N=C1\\N(CCCCCOc2ccc(Cl)cc2)C(=O)C(c2ccccc2)N1c1ccncc1 (stereo unspecified)" category_label=moderate
molecule=N#CN=C(NCCCCCCOc1ccc(Cl)cc1)Nc1ccncc1 category_label=moderate
molecule=N#C/N=C1\N(CCCCCOc2ccc(Cl)cc2)C(=O)CN1c1ccncc1 category_label=high
molecule="CC1C(=O)N(CCCCCCOc2ccc(Cl)cc2)/C(=N\\C#N)N1c1ccncc1 (stereo unspecified)" category_label=low
molecule="CC1C(=O)N(CCCCCCCOc2ccc(Cl)cc2)/C(=N\\C#N)N1c1ccncc1 (stereo unspecified)" category_label=low
molecule="CCC1C(=O)N(CCCCCCOc2ccc(Cl)cc2)/C(=N\\C#N)N1c1ccncc1 (stereo unspecified)" category_label=high
molecule="N#C/N=C1\\N(CCCCCCCOc2ccc(Cl)cc2)C(=O)C(c2ccccc2)N1c1ccncc1 (stereo unspecified)" category_label=low
molecule=N#C/N=C1\N(CCCCCCCOc2ccc(Cl)cc2)C(=O)CCN1c1ccncc1 category_label=high
molecule="N#C/N=C1\\N(CCCCCCOc2ccc(Cl)cc2)C(=O)C(c2ccccc2)N1c1ccncc1 (stereo unspecified)" category_label=low

====

# Test system: HONE1 cell line
# TEST: Cytotoxic activity against HONE1 nasopharyngeal carcinoma cell line
# Assay type: functional, cell-based
# EXPERIMENTAL_CONDITIONS: Homo sapiens
pIC50: −log10 of the molar value.
MEASURED_PARAMETER: pIC50

compound=N#C/N=C1\N(CCCCCCOc2ccc(Cl)cc2)C(=O)CCN1c1ccncc1 measurement_target="HONE1 cell line" measured_parameter=pIC50 numeric_readout=6.24
compound="CCC1C(=O)N(CCCCCCOc2ccc(Cl)cc2)/C(=N\\C#N)N1c1ccncc1 (stereo unspecified)" measurement_target="HONE1 cell line" measured_parameter=pIC50 numeric_readout=5.41
compound="CC1C(=O)N(CCCCCOc2ccc(Cl)cc2)/C(=N\\C#N)N1c1ccncc1 (stereo unspecified)" measurement_target="HONE1 cell line" measured_parameter=pIC50 numeric_readout=5.43
compound="N#C/N=C1\\N(CCCCCCOc2ccc(Cl)cc2)C(=O)C(c2ccccc2)N1c1ccncc1 (stereo unspecified)" measurement_target="HONE1 cell line" measured_parameter=pIC50 numeric_readout=6.47
compound="CC1C(=O)N(CCCCCCOc2ccc(Cl)cc2)/C(=N\\C#N)N1c1ccncc1 (stereo unspecified)" measurement_target="HONE1 cell line" measured_parameter=pIC50 numeric_readout=6.52
compound="N#C/N=C1\\N(CCCCCCCOc2ccc(Cl)cc2)C(=O)C(c2ccccc2)N1c1ccncc1 (stereo unspecified)" measurement_target="HONE1 cell line" measured_parameter=pIC50 numeric_readout=6.40
compound="N#C/N=C1\\N(CCCCCOc2ccc(Cl)cc2)C(=O)C(c2ccccc2)N1c1ccncc1 (stereo unspecified)" measurement_target="HONE1 cell line" measured_parameter=pIC50 numeric_readout=6.43
compound=N#CN=C(NCCCCCCOc1ccc(Cl)cc1)Nc1ccncc1 measurement_target="HONE1 cell line" measured_parameter=pIC50 numeric_readout=7.82
compound=N#C/N=C1\N(CCCCCCCOc2ccc(Cl)cc2)C(=O)CN1c1ccncc1 measurement_target="HONE1 cell line" measured_parameter=pIC50 numeric_readout=5.49
compound="CCC1C(=O)N(CCCCCOc2ccc(Cl)cc2)/C(=N\\C#N)N1c1ccncc1 (stereo unspecified)" measurement_target="HONE1 cell line" measured_parameter=pIC50 numeric_readout=5.32
compound=N#C/N=C1\N(CCCCCCCOc2ccc(Cl)cc2)C(=O)CCN1c1ccncc1 measurement_target="HONE1 cell line" measured_parameter=pIC50 numeric_readout=5.46
compound=N#C/N=C1\N(CCCCCCOc2ccc(Cl)cc2)C(=O)CN1c1ccncc1 measurement_target="HONE1 cell line" measured_parameter=pIC50 numeric_readout=5.53
compound="CC1C(=O)N(CCCCCCCOc2ccc(Cl)cc2)/C(=N\\C#N)N1c1ccncc1 (stereo unspecified)" measurement_target="HONE1 cell line" measured_parameter=pIC50 numeric_readout=6.43
compound="CCC1C(=O)N(CCCCCCCOc2ccc(Cl)cc2)/C(=N\\C#N)N1c1ccncc1 (stereo unspecified)" measurement_target="HONE1 cell line" measured_parameter=pIC50 numeric_readout=5.49
compound=N#C/N=C1\N(CCCCCOc2ccc(Cl)cc2)C(=O)CN1c1ccncc1 measurement_target="HONE1 cell line" measured_parameter=pIC50 numeric_readout=5.47
compound=N#C/N=C1\N(CCCCCOc2ccc(Cl)cc2)C(=O)CCN1c1ccncc1 measurement_target="HONE1 cell line" measured_parameter=pIC50 numeric_readout=5.46
